Values were extracted from ChEMBL document CHEMBL1152899.

target: UniProtKB Q13639; test: Displacement of [3H]GR-113808 from human 5HT4b receptor expressed in COS7 cell membrane by scintillation counting
Sequence (Q13639 whole entry): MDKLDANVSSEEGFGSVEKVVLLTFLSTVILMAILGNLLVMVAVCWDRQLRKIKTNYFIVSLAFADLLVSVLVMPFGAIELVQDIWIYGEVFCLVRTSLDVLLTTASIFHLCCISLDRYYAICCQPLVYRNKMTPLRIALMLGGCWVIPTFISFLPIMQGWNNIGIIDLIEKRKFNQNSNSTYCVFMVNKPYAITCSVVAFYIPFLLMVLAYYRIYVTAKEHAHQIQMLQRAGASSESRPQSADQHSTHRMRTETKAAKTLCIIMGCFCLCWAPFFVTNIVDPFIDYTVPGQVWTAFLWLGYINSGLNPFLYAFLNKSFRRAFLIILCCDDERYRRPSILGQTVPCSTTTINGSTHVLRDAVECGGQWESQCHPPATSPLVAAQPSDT
Listing: Ki of selected compounds
Put your answer as a value accompanied by its unit after it.

{"columns": ["Compound", "Assay System", "Ki"],
 "data": [
  ["COc1ccc2[nH]cc(CCN)c2c1 [5-METHOXYTRYPTAMINE]", "UniProtKB Q13639", "0.0269 µM"]
]}

Read the next record carefully.
## Input Recall the recorded Ki for COc1ccc2[nH]cc(CNN3CCOCC3)c2c1 with UniProtKB Q13639 and state it.
## Output 0.145 µM
